# ASSAY_PROCEDURE: Solubility data of compounds in water over the pH range
# Assay type: physicochemical
# CONDITION_PARAMETERS: pH 5.97, pH 5.97; read-out: Conc (solubility in water)
Where a SMILES comes first, the peptide text is derived from it. Bridges are numbered along the chain shown (N, C = ends). [ ]: non-standard residue; d: D form. The star is where a group is joined. Palmitoyl(16-(5-tetrazolyl)) = O=C(CCCCCCCCCCCCCCCc1nnn[nH]1)*; Lys(CH2CO2H)2 = N[C@@H](CCCCN(CC(=O)O)CC(=O)O)C(=O)O; Hyp = O=C(O)[C@@H]1C[C@@H](O)CN1; Nle = CCCC[C@H](N)C(=O)O; AEEA = NCCOCCOCC(=O)O
OUTCOME_MEASURE: solubility at 3 days
Note: state the figure and append the unit.

Form: molecule = CCCC[C@H](NC(=O)[C@H](CCCCN(CC(=O)O)CC(=O)O)NC(=O)[C@H](CO)NC(=O)[C@H](CCC(N)=O)NC(=O)[C@H](CO)NC(=O)CNC(=O)COCCOCCNC(=O)CCCCCCCCCCCCCCCc1nnn[nH]1)C(=O)N[C@H]1CCC(=O)NCCCC[C@@H](C(N)=O)NC(=O)[C@H](Cc2c[nH]c3ccccc23)NC(=O)[C@H](CCCNC(=N)N)NC(=O)[C@@H](Cc2ccccc2)NC(=O)[C@@H]2C[C@@H](O)CN2C1=O [Example 5] ({Palmitoyl(16-(5-tetrazolyl))-AEEA}-GSQS[Lys(CH2CO2H)2][Nle]E[Hyp][dF]RWK-NH2; lactam 7-12) ; solubility at 3 days = 129 µM

FYI, the data here is from patent US20100173835A1.
